System: Fluoroquinolone-Resistant Strains
Assay: In-vitro antimicrobial test (MIC, two-fold serial agar dilution, NCCLS), Table 18
Format: cell-based
Conditions: Staphylococcus aureus, MRSA, MRSA 032
measurement.type: MIC (µg/mL)
Dear colleague, please return just the value in µg/mL, with no unit written.

Known results for compounds:
• COc1c(N2CCC(N)C(C)(C)C2)c(F)cc2c(=O)c(C(=O)O)cn(C3CC3)c12.Cl (single isomer, unassigned; (-)) [Compound 26] = 0.8
• Cc1c(N2CC[C@H](O)[C@H](C)C2)c(F)cc2c(=O)c(C(=O)O)cn(C3CC3)c12 (relative stereo) = 0.2
• Cc1c(N2CCC(O)C(C)(C)C2)c(F)cc2c(=O)c(C(=O)O)cn(C3CC3)c12 (racemic) = 0.2

Challenge: Look up MIC of C[C@H]1COc2c(N3CCN(C)CC3)c(F)cc3c(=O)c(C(=O)O)cn1c23 [S-(−)-levofloxacin, reference compound] and report it.
Response given: 6.25

====

Test system: Fluoroquinolone Sensitive Strains
Assay: In-vitro antimicrobial test (MIC, two-fold serial agar dilution, NCCLS), Table 17
Format: cell-based
Settings: Staphylococcus aureus, ATCC 25923 / MSSA, MSSA ATCC 25923
measurement.type: MIC (µg/mL)
Report only the number, with the unit µg/mL understood.

• COc1c(N2C[C@@H]3CCCN[C@@H]3C2)c(F)cc2c(=O)c(C(=O)O)cn(C3CC3)c12 [Moxifloxacin, reference compound] = 0.05

Challenge: Report measured MIC; entry is Cc1c(N2CC[C@H](N)[C@H](C)C2)c(F)cc2c(=O)c(C(=O)O)cn(C3CC3)c12.Cl (relative stereo)
Response given: 0.025

Challenge: Give the reported value of MIC for this record: Cc1c(N2CCC(N)C(C)(C)C2)c(F)c(N)c2c(=O)c(C(=O)O)cn(C3CC3)c12 (racemic) [Compound 131]
Response given: 0.8

Challenge: Give reported MIC value for Cc1c(N2CCC(N)C(C)(C)C2)c(F)cc2c(=O)c(C(=O)O)cn(C3CC3)c12.Cl (single isomer, unassigned; (+)) [Compound 106]
Response given: 0.025

Challenge: Dear colleague, please send me the reported MIC for Cc1c(N2CC[C@H](O)[C@H](C)C2)c(F)cc2c(=O)c(C(=O)O)cn(C3CC3)c12 (relative stereo) when you can.
Response given: 0.003

Challenge: Specify measured MIC for Cc1c(N2CC[C@@H](N)[C@H](C)C2)c(F)cc2c(=O)c(C(=O)O)cn(C3CC3)c12.Cl (single isomer, unassigned) .
Response given: 0.025

Challenge: Supply measured MIC of Cc1c(N2CCC(N(C)C)C(C)C2)c(F)cc2c(=O)c(C(=O)O)cn(C3CC3)c12 (stereo not drawn) in your reply.
Response given: 0.05

Challenge: Tell me measured MIC for COc1c(N2CCC(N)C(C)C2)c(F)cc2c(=O)c(C(=O)O)cn(C3CC3)c12 (stereo not drawn) please.
Response given: 0.05

====

# MIC annotations
Tested on: Fluoroquinolone Sensitive Strains
Test: In-vitro antimicrobial test (MIC, two-fold serial agar dilution, NCCLS), Table 17
Format: cell-based
Settings: Pseudomonas aeruginosa, P. aeruginosa 27853
State the answer as a number, implicitly in µg/mL.

* Cc1c(N2CCC(O)C(C)(C)C2)c(F)cc2c(=O)c(C(=O)O)cn(C3CC3)c12 (racemic) [Compound 95] | 3.12
* Cc1c(N2CCC(N)C(C)(C)C2)c(F)cc2c(=O)c(C(=O)O)cn(C3CC3)c12.Cl (racemic) [Compound 102] | 3.12
* Cc1c(N2CC[C@@H](N)[C@H](C)C2)c(F)cc2c(=O)c(C(=O)O)cn(C3CC3)c12 (single isomer, unassigned) [Compound 97] | 12.5
* Cc1c(N2CC[C@@H](O)[C@H](C)C2)c(F)cc2c(=O)c(C(=O)O)cn(C3CC3)c12 (relative stereo) [Compound 94] | 3.12
* Cc1c(N2CC[C@H](O)[C@H](C)C2)c(F)cc2c(=O)c(C(=O)O)cn(C3CC3)c12 (relative stereo) [Compound 93] | 3.12
* C[C@H]1COc2c(N3CCN(C)CC3)c(F)cc3c(=O)c(C(=O)O)cn1c23 [S-(−)-levofloxacin, reference compound] | 3.12
* Cc1c(N2CC[C@H](N)[C@H](C)C2)c(F)cc2c(=O)c(C(=O)O)cn(C3CC3)c12.Cl (relative stereo) [Compound 100] | 3.12

# next compound below
Challenge: For the compound Cc1c(N2CC[C@@H](N)[C@H](C)C2)c(F)cc2c(=O)c(C(=O)O)cn(C3CC3)c12.Cl (single isomer, unassigned) [Compound 98] , give its measured MIC value.
Response given: 1.56

====

Test system: J 744 (mouse macrophage)
Assay: Cytotoxicity test (Alamar blue), J 744 cells, Table 23
Assay type: cell-based
Settings: 3 hrs drug exposure, further 96 hrs incubation
measurement.type: Cytotoxic concentration, J 744 Macrophage

- Cc1c(N2CC[C@H](O)[C@H](C)C2)c(F)cc2c(=O)c(C(=O)O)cn(C3CC3)c12 (relative stereo): >1000 µg/mL
- Cc1c(N2CCC(O)C(C)(C)C2)c(F)cc2c(=O)c(C(=O)O)cn(C3CC3)c12 (racemic): >1000 µg/mL

--- query ---
Challenge: Supply measured Cytotoxic concentration, J 744 Macrophage of Cc1c(N2CC[C@@H](N)[C@H](C)C2)c(F)cc2c(=O)c(C(=O)O)cn(C3CC3)c12.Cl (single isomer, unassigned) in your reply.
Response given: 1000 µg/mL

====

System: V79 (Chinese Hamster Lung)
Experiment: Cytotoxicity test (Alamar blue), V79 cells, Table 23
Assay type: cell-based
Conditions: 3 hrs drug exposure, further 96 hrs incubation, hydrochloride
In this section we review reported Cytotoxic concentration, V 79 CHL values for a set of compounds.
Give the value in µg/mL but do not write µg/mL after it.

• COc1c(N2CCC(N)C(C)(C)C2)c(F)cc2c(=O)c(C(=O)O)cn(C3CC3)c12.Cl (single isomer, unassigned; (+)) [Compound 22] = 1000

Continue with the next compound.
Challenge: Given the compound Cc1c(N2CCC(N)C(C)(C)C2)c(F)cc2c(=O)c(C(=O)O)cn(C3CC3)c12.Cl (single isomer, unassigned; (-)) [Compound 110] , write its reported Cytotoxic concentration, V 79 CHL.
Response given: 250

====

measurement.type: melting point

Challenge: Give the value of melting point reported for the following: CCC1(C)CN(c2c(F)cc3c(=O)c(C(=O)O)cn(C4CC4)c3c2OC)CCC1NC1CC1 (stereo not drawn) [Compound 41]
Response given: 210 to 212 °C

Challenge: For the molecule Cc1c(N2CCC(N)C(C)(C)C2)c(F)cc2c(=O)c(C(=O)O)cn(C3CC3)c12 (racemic) [Compound 101] , give its measured melting point value.
Response given: 198 to 200 °C

Challenge: Entry Cc1c(N2CC[C@H](N)[C@H](C)C2)c(F)cc2c(=O)c(C(=O)O)cn(C3CC3)c12.Cl (relative stereo) [Compound 100] needs its melting point filled in; supply it.
Response given: 255 to 260 °C

Challenge: Determine its reported melting point: COc1c(N2CCC(NC(C)=O)C(C)(C)C2)c(F)cc2c(=O)c(C(=O)O)cn(C3CC3)c12 (stereo not drawn) [Compound 29]
Response given: 194 to 196 °C

Challenge: Indicate its recorded melting point; the molecule in question is COc1c(N2CC(C)C(N)C(C)(C)C2)c(F)c(N)c2c(=O)c(C(=O)O)cn(C3CC3)c12 (stereo not drawn) [Compound 87]
Response given: 248 to 252 °C

Challenge: Fill in reported melting point for this entry: Cc1c(N2CCC(N)C(C)(C)C2)c(F)cc2c(=O)c(C(=O)O)cn(C3CC3)c12.Cl (racemic) [Example 97]
Response given: 242 to 244 °C

Challenge: Supply reported melting point belonging to this molecule: CCC1(C)CN(c2c(F)cc3c(=O)c(C(=O)O)cn(C4CC4)c3c2OC)CCC1N(C)C (stereo not drawn) [Compound 42]
Response given: 210 to 212 °C

Challenge: Quote melting point reported for Cc1c(N2CC[C@H](N)[C@H](C)C2)c(F)cc2c(=O)c(C(=O)O)cn(C3CC3)c12 (relative stereo) [Compound 99] please.
Response given: 224 to 228 °C

Challenge: // fetch melting point given entry CCNC1C(C)CN(c2c(F)cc3c(=O)c(C(=O)O)cn(C4CC4)c3c2OC)CC1C (stereo not drawn) [Example 39]
Response given: 250 to 255 °C

Challenge: Tell me melting point reported for COc1c(N2CC(C)C(NC3CC3)C(C)C2)c(F)cc2c(=O)c(C(=O)O)cn(C3CC3)c12 (stereo not drawn) [Example 41]
Response given: 240 to 242 °C

Challenge: Name the recorded melting point of the item COc1c(N2CCC(NC(=O)OCc3ccccc3)C(C)(C)C2)c(F)cc2c(=O)c(C(=O)O)cn(C3CC3)c12 (racemic) [Compound 32] in your answer.
Response given: 158 to 160 °C
